Protocol details: protein stability index of a GFP-peptide fusion (GPS, HEK-293T) (PSI 1-6); higher = more stable;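 further: 24-mer peptide tiles fused after GFP, lentivirally expressed, FACS-sorted into six equal bins by GFP/DsRed ratio, decoded by Illumina sequencing, PSI is the read-weighted mean bin number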
Experimental conditions: treatment: DMSO; c terminus: a fixed tail appended
Hi, to clarify the labels: Fulfilled covers protein stability index from 3 upward, Not fulfilled covers anything below 3.

{"Construct sequence": "SLTSGACRLDYRRPENRSFYLALY [TCF25]", "Label class": "Not fulfilled"}
{"Construct sequence": "AEEYEDSSTKPPKSRRKAALSSPR [INTS3]", "Label class": "Fulfilled"}
{"Construct sequence": "QFHDLMELFRIGGKSPDTNYLFMG [PPP2CA]", "Label class": "Not fulfilled"}
{"Construct sequence": "ESLKVIGRGAFGEVRLVQKKDTGH [STK38L]", "Label class": "Fulfilled"}
{"Construct sequence": "QVDVGDVNDNAPEVLLASLANPVL [PCDHGC5]", "Label class": "Fulfilled"}
{"Construct sequence": "PYFLFQHWATGYSKSSHPLIRSLF [SOAT1]", "Label class": "Not fulfilled"}
{"Construct sequence": "ALVDGQIFCLHGGLSPSIDTLDHI [PPP2CA]", "Label class": "Not fulfilled"}
{"Construct sequence": "QPRIHLVRAAQLCSQHWGGMASFR [TBX6]", "Label class": "Not fulfilled"}
{"Construct sequence": "LQAIKAAIMLLPDENREVLQTLLY [DLC1]", "Label class": "Not fulfilled"}
{"Construct sequence": "DMCMKVPDDPEHLAARRQWRDECL [CRYL1]", "Label class": "Fulfilled"}
{"Construct sequence": "SFPEPEAAQPMTKKRKVDGLSTEA [PRAME]", "Label class": "Fulfilled"}
{"Construct sequence": "DTTRVENLIKSENYGKILVEKNEH [R3HDM1]", "Label class": "Fulfilled"}
{"Construct sequence": "VIRWIAHDTEIRKVHMKDVMSALW [GAN]", "Label class": "Not fulfilled"}
{"Construct sequence": "SLLPAQVAACAQTVVSLAAAGQPT [CEBPD]", "Label class": "Fulfilled"}
{"Construct sequence": "LKRSIPQVSPVRRAPSRRHGVRAK [CPN1]", "Label class": "Fulfilled"}
{"Construct sequence": "DETHPYTVTSVSCCHGNTLLAVRS [NEK8]", "Label class": "Not fulfilled"}
{"Construct sequence": "GNEKITMQNLNDRLASYLDKVRAL [KRT15]", "Label class": "Not fulfilled"}
{"Construct sequence": "SIVSGGYGGSGDGLIPTGSGRHPS [ARFIP2]", "Label class": "Fulfilled"}
{"Construct sequence": "PQGSRSPYIPPHAALCLEVTLKTA [FKBP8]", "Label class": "Not fulfilled"}
{"Construct sequence": "GDVHTVRKMLEQGYSPNGRDANGW [ASB7]", "Label class": "Fulfilled"}
{"Construct sequence": "IQSRVQELHPESGEEAVTLVEDMQ [ZNF263]", "Label class": "Fulfilled"}
{"Construct sequence": "SKSKQPAGHRRPAGGIRESKESSK [C22orf31]", "Label class": "Fulfilled"}
{"Construct sequence": "LHDCAESGSLEILQLLLGCKARME [FEM1A]", "Label class": "Not fulfilled"}
{"Construct sequence": "NCSIGPNVSLGPGVVVEDGVCIRR [GMPPB]", "Label class": "Fulfilled"}
{"Construct sequence": "AEISARTMQSMFAKNFHVKAVMKT [PTPRD]", "Label class": "Not fulfilled"}

Origin of the recorded values: the supplement of paper PMC10567573
